SYSTEM_NAME: Human immunodeficiency virus 2
TEST_METHOD_NOTES: In vitro inhibition of cytopathic effect was determined against HIV-2 ROD in MT-4 cells using MTT cytoprotection assay
pEC50: −log10 of the molar value.
MEASUREMENT_TYPE: pEC50

Request: I'd like to know its pEC50. The compound in question is COc1ccc(C(=O)Nc2cc(C(=CCC[C@H]3CC[C@@]4(C)C(CCC5C4CC[C@@]4(C)C5CC[C@@H]4C(C)CCCC(C)C)C3)c3cc(NC(=O)c4ccc(OC)c(C(=O)O)c4)c(OC)c(C(=O)O)c3)cc(C(=O)O)c2OC)cc1C(=O)O (some centres not stated)
Result: < 4.18

Let us move to another entry and its pEC50.
Request: I'd like to know its pEC50. The compound in question is CC(C)CCCC(C)[C@H]1CCC2C3CCC4C[C@@H](CCC=C(c5cc(Cl)c(O)c(C(=O)N[C@@H](Cc6ccccc6)C(=O)O)c5)c5cc(Cl)c(O)c(C(=O)N[C@@H](Cc6ccccc6)C(=O)O)c5)CC[C@]4(C)C3CC[C@@]21C (some centres not stated)
Result: < 4.21

* * *

SYSTEM_NAME: Human immunodeficiency virus 2
TEST_METHOD_NOTES: In vitro inhibition of cytopathic effect was determined against HIV-2 ROD in MT-4 cells using MTT cytoprotection assay
pEC50: −log10 of the molar value.
MEASUREMENT_TYPE: pEC50

Solved entries (count: 2):
Request: I'd like to know its pEC50. The compound in question is CC(C)CCCC(C)[C@H]1CCC2C3CCC4C[C@@H](CCCC(c5cc(Cl)c(O)c(C(=O)N[C@@H](CCC(=O)O)C(=O)O)c5)c5cc(Cl)c(O)c(C(=O)N[C@@H](CCC(=O)O)C(=O)O)c5)CC[C@]4(C)C3CC[C@@]21C (stereo partly drawn)
Result: 4.14

Request: I'd like to know its pEC50. The compound in question is CC(C)CCCC(C)[C@H]1CCC2C3CCC4C[C@@H](CCC=C(c5cc(Cl)c(O)c(C(=O)N[C@@H](CCC(=O)O)C(=O)O)c5)c5cc(Cl)c(O)c(C(=O)N[C@@H](CCC(=O)O)C(=O)O)c5)CC[C@]4(C)C3CC[C@@]21C (stereo partly drawn)
Result: 4.16

a: CC(C)CCCC(C)[C@H]1CCC2C3CCC4C[C@@H](CCCC(c5cc(Cl)c(OCc6ccc(C(=O)O)cc6)c(C(=O)O)c5)c5cc(Cl)c(OCc6ccc(C(=O)O)cc6)c(C(=O)O)c5)CC[C@]4(C)C3CC[C@@]21C (stereo partly drawn)
b: CC(C)CCCC(C)[C@H]1CCC2C3CCC4C[C@@H](CCC=C(c5cc(Cl)c(O)c(C(=O)N[C@@H](CC(=O)O)C(=O)O)c5)c5cc(Cl)c(O)c(C(=O)N[C@@H](CC(=O)O)C(=O)O)c5)CC[C@]4(C)C3CC[C@@]21C (stereo partly drawn)
Request: Of a and b , whose reported pEC50 is numerically smaller? Your answer should be the label attached to the chosen record.
Result: b
(b: 3.91, a: 4.15)

* * *

SYSTEM_NAME: Human immunodeficiency virus 2
TEST_METHOD_NOTES: In vitro inhibition of cytopathic effect was determined against HIV-2 ROD in MT-4 cells using MTT cytoprotection assay
pEC50: −log10 of the molar value.
MEASUREMENT_TYPE: pEC50

Solved entries (count: 3):
Request: I'd like to know its pEC50. The compound in question is CC(C)CCCC(C)[C@H]1CCC2C3CCC4C[C@@H](CCC=C(c5cc(Cl)c(O)c(C(=O)NCCC(=O)O)c5)c5cc(Cl)c(O)c(C(=O)NCCC(=O)O)c5)CC[C@]4(C)C3CC[C@@]21C (some centres undefined)
Result: 3.92

Request: I'd like to know its pEC50. The compound in question is CC(C)CCCC(C)[C@H]1CCC2C3CCC4C[C@@H](CCC=C(c5cc(Cl)c(OCc6ccc(C(=O)O)cc6)c(C(=O)O)c5)c5cc(Cl)c(OCc6ccc(C(=O)O)cc6)c(C(=O)O)c5)CC[C@]4(C)C3CC[C@@]21C (some centres undefined)
Result: 4.66

Request: I'd like to know its pEC50. The compound in question is CC(C)CCCC(C)[C@H]1CCC2C3CCC4C[C@@H](CCC=C(c5cc(Cl)c(O)c(C(=O)O)c5)c5cc(Cl)c(O)c(C(=O)O)c5)CC[C@]4(C)C3CC[C@@]21C (some centres undefined)
Result: 5.40

I: CC(C)CCCC(C)[C@H]1CCC2C3CCC4C[C@@H](CCC=C(c5cc(Cl)c(OCc6ccc(CC(=O)O)cc6)c(C(=O)O)c5)c5cc(Cl)c(OCc6ccc(CC(=O)O)cc6)c(C(=O)O)c5)CC[C@]4(C)C3CC[C@@]21C (some centres undefined)
II: COc1c(Cl)cc(Cc2cc(C(=CCC[C@H]3CC[C@@]4(C)C(CCC5C4CC[C@@]4(C)C5CC[C@@H]4C(C)CCCC(C)C)C3)c3cc(Cc4cc(Cl)c(OC)c(C(=O)O)c4)c(OC)c(C(=O)O)c3)cc(C(=O)O)c2OC)cc1C(=O)O (some centres undefined)
Request: Of I and II , whose reported pEC50 is numerically smaller? Your answer should be the label attached to the chosen record.
Result: I
(I: 4.08, II: 4.70)
